# targetOfAssay: T1, human IL-6 (human, UniProt P05231 30-212)
# T1 construct: IL-6 flowed over captured antibodies
# T1 sequence (P05231 30-212 limits assumed): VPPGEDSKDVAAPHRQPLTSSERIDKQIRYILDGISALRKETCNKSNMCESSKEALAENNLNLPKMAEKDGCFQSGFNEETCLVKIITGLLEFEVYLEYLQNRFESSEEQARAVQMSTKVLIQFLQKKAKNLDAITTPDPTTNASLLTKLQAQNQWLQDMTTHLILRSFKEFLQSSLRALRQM
# testDescription: SPR Biacore, supernatant Ab on Protein A chip, 37 C
valueType: Kd (pM)
Record the value in pM, omitting the unit from your answer.

binder	Kd, pM
anti-IL-6 antibody, heavy chain S35V, G66D / light chain M32L, M50D, N52S, M88Q (antibody, IgG1, V domains shown, Full IgG1 (Expi293); VL = variant III) VH: EVQLVESGGGLVQPGGSLRLSCAASGFTFSPFAMVWVRQAPGKGLEWVAKISPGGSWTYYSDTVTDRFTFSLDTSKSTAYLQMNSLRAEDTAVYYCARQLWGYYALDIWGQGTLVTVSS VL: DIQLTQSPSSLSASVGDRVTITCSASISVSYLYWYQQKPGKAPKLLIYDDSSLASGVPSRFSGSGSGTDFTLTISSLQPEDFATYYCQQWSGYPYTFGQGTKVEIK	1330

Fill in reported Kd for this entry: anti-IL-6 antibody, heavy chain T63P, G66D / light chain M32L, M50D, N52S, M88Q (antibody, IgG1, V domains shown, Full IgG1 (Expi293); VL = variant III) VH: EVQLVESGGGLVQPGGSLRLSCAASGFTFSPFAMSWVRQAPGKGLEWVAKISPGGSWTYYSDPVTDRFTFSLDTSKSTAYLQMNSLRAEDTAVYYCARQLWGYYALDIWGQGTLVTVSS VL: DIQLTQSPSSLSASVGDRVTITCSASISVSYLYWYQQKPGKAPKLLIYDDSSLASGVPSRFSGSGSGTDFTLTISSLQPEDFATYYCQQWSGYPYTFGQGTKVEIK
246

Fill in reported Kd for this entry: anti-IL-6 antibody, heavy chain S35F, G66D / light chain M32L, M50D, N52S, M88Q (antibody, IgG1, V domains shown, Full IgG1 (Expi293); VL = variant III) VH: EVQLVESGGGLVQPGGSLRLSCAASGFTFSPFAMFWVRQAPGKGLEWVAKISPGGSWTYYSDTVTDRFTFSLDTSKSTAYLQMNSLRAEDTAVYYCARQLWGYYALDIWGQGTLVTVSS VL: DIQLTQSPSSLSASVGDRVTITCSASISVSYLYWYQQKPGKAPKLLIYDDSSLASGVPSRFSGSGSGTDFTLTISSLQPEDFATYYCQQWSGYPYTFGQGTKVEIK
3170

Fill in reported Kd for this entry: anti-IL-6 antibody, heavy chain T65A, G66D / light chain M32L, M50D, N52S, M88Q (antibody, IgG1, V domains shown, Full IgG1 (Expi293); VL = variant III) VH: EVQLVESGGGLVQPGGSLRLSCAASGFTFSPFAMSWVRQAPGKGLEWVAKISPGGSWTYYSDTVADRFTFSLDTSKSTAYLQMNSLRAEDTAVYYCARQLWGYYALDIWGQGTLVTVSS VL: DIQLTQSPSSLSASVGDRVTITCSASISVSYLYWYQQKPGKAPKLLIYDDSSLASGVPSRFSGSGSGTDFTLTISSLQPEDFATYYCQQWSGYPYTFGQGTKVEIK
239
